From: ChEMBL document CHEMBL3988442

Tested on: Plasmodium falciparum
Method notes: Calibr Malaria Delayed Death Assay SOP
Format: functional, organism-based
Design: scale not given: in the data most compounds retested in dose-response had high values
Condition summary: concentration 4.99e-06 (unit not given; other assays of the set use mol/L)
Hit rate of the full screen: of about 38,000 compounds, about 1,200 (3.2%) showed an effect of 50% or more. The median lay at about -58%. The list comes from a sample in which strong results are over-represented; it also holds close analogues and randomly drawn compounds.
Kindly state Percent Effect for each of the entries shown.
Please state the figure in %; there is no need to write the unit.

Request: Indicate its recorded Percent Effect; the compound in question is CN(Cc1cccnc1)CC1CC12CCN(c1nncs1)CC2.O=C(O)C(F)(F)F.O=C(O)C(F)(F)F.O=C(O)C(F)(F)F (stereo not given)
Response: -14.98

Request: Please report Percent Effect for the following compound: Cc1cnc(CN(C)C2CCN(Cc3nc4c(F)cccc4[nH]3)C2)o1 (stereo not given)
Response: -76.29

Request: Return reported Percent Effect. Input compound: NCC(CO)Cc1ccc(C(F)(F)F)cc1 (stereo not given)
Response: -43.7

Request: Report Percent Effect for CN1CCN(C[C@@H]2CN(C(=O)NCC3CCCCC3)C[C@@H]2CO)CC1
Response: -32.18

Request: Given the compound CCc1nccn1-c1cncc(C2CCCN2Cc2ccccn2)n1 (stereo not given) , write its reported Percent Effect.
Response: -28.75

Request: For the compound COCCn1ccnc1CN1CCc2[nH]cnc2C1c1cccc(O)c1 (stereo not given) , report Percent Effect.
Response: -80.26

Request: For the compound CS(=O)(=O)N1CCc2c(cccc2NC(=O)NC2CCCC2)C1 , report Percent Effect.
Response: -76.44

Request: Give recorded Percent Effect. Cc1ccc(CN2CCC3(CC2)CC3CN(C)Cc2cccnc2)o1.O=C(O)C(F)(F)F.O=C(O)C(F)(F)F.O=C(O)C(F)(F)F (stereo not given)
Response: 69.86

Request: Using the record for COCC1CN(Cc2ccoc2)Cc2nn(CC3CC3)cc21.O=C(O)C(F)(F)F (stereo not given) , state its measured Percent Effect.
Response: -62.03

Request: Please give measured Percent Effect of the following entry: CCn1ncnc1CN1CCc2[nH]cnc2C1Cc1ccccc1 (stereo not given)
Response: -69.64

* * *

Tested on: Plasmodium falciparum
Method notes: Calibr Malaria Delayed Death Assay SOP
Format: functional, organism-based
Design: scale not given: in the data most compounds retested in dose-response had high values
Condition summary: concentration 4.99e-06 (unit not given; other assays of the set use mol/L)
Screen size: about 38,000 compounds; about 1,200 (3.2%) showed an effect of 50% or more. The median lay at about -58%. The sample holds strong results, similar compounds and a random draw of the others, so the mix is not that of the screen.
Value kind: Percent Effect (%)
Numeric answer only, unit % assumed.

Request: Please give the documented Percent Effect of CCn1c(C)cc(C(=O)N2CCC(Nc3ccc(C)nn3)CC2)c1C
Response: -49.09

Request: Indicate its recorded Percent Effect; the compound in question is c1ccc2oc(CN3CCCCC3Cn3cncn3)nc2c1 (centres undefined)
Response: -88.89

Request: Fill in reported Percent Effect for this entry: Oc1cccc(C2CN(c3nnc(C4CC4)s3)CCO2)c1 (centres undefined)
Response: -92.75

Request: Quickly give me recorded Percent Effect for Cc1csc(N2CCCN(C(=O)Cc3ccc(C)s3)CC2)n1
Response: -98.4

Request: For the compound CC(C)C(=O)NC1CCN(c2cccc(OC(F)(F)F)c2)C1=O (centres undefined) , give its reported Percent Effect.
Response: -46.04

Request: Provide only the value of recorded Percent Effect for Cn1cc(CN2C[C@@H]3CCC[C@@H](OCc4cccnc4)[C@@H]3C2)cn1
Response: -83.15

Request: Entry Cc1nc(O)cc(C2CCCN(Cc3c(Cl)cncc3Cl)C2)n1 (centres undefined) needs its Percent Effect filled in; supply it.
Response: -29.03

Request: Consider the compound NCC1Cc2cc(-c3nccc(N4CCC(O)CC4)n3)cc(F)c2O1 (centres undefined) . State its measured Percent Effect.
Response: 83

Request: Supply reported Percent Effect belonging to this compound: CN(C)CCN1CC2(CCCN(c3ncc(Cl)cc3F)C2)CCC1=O (centres undefined)
Response: 82.66

Request: Give reported Percent Effect value for CN(Cc1nc2ccccc2c(=O)[nH]1)C[C@@H]1CCCN2CCCC[C@H]12
Response: -16.14

Request: Give the reported value of Percent Effect for this record: O=C(O)C(F)(F)F.O=C(O)C(F)(F)F.O=C(O)C(F)(F)F.c1cc(COC[C@]23COC[C@H]2CN(Cc2ccncc2)C3)ccn1
Response: -128.8

Request: Give recorded Percent Effect. CN(Cc1nc2ccsc2c(=O)[nH]1)C[C@@H]1CCCN2CCCC[C@H]12
Response: -24.21

Request: Identify the reported Percent Effect for the following entry. COc1ccccc1CN1C[C@@H]2COC[C@]2(COc2cccnc2)C1.O=C(O)C(F)(F)F.O=C(O)C(F)(F)F
Response: 52.99

Request: Indicate the recorded Percent Effect value for this compound: Cc1ccc2cccc(S(=O)(=O)N(C)CC3CCN(C)C3)c2n1 (centres undefined)
Response: 35.25

Request: Please look at this compound and report its Percent Effect: Cc1cccc(C2CCCN(C(=O)c3ccncc3)C2)n1 (centres undefined)
Response: -31.2

Request: State, in one line, measured Percent Effect of COc1cccc(CN2C[C@@H]3COC[C@]3(COc3cccnc3)C2)c1.O=C(O)C(F)(F)F.O=C(O)C(F)(F)F
Response: 12.68

Request: Name the recorded Percent Effect of the item O=C1NCCN1C1CCN(c2ccnc(-c3ccccc3)n2)CC1 in your answer.
Response: -68.77

Request: Return reported Percent Effect. Input compound: COCCCN(C)C1CCCN(Cc2noc(C3CC3)n2)C1 (centres undefined)
Response: -38.52

Request: For Cn1cc(C2CC(=O)NC23CCN(C(=O)NC2CC2)CC3)cn1 (centres undefined) , write its Percent Effect.
Response: -54.83

Request: Let me know recorded Percent Effect for O=C(C[C@@H]1COC[C@H]2CN(Cc3cccnc3)C[C@@H]12)NCC1CC1.O=C(O)C(F)(F)F.O=C(O)C(F)(F)F , thanks.
Response: -77.98

Request: Give me measured Percent Effect, please, for this compound: NCC1Cc2cc(-c3nccc(N4CCC(O)CC4)n3)cc(Cl)c2O1 (centres undefined)
Response: 79.64

Request: Assign Percent Effect to the following record: CCCc1nc(CN2CCCC2Cn2cncn2)no1 (centres undefined)
Response: -44.73

Request: Please list Percent Effect recorded for the compound CCc1cc(=O)[nH]c(-c2ccc(NC(CO)CC(C)C)nc2)n1 (centres undefined)
Response: -171.9

Request: Using the record for COc1ccc(-c2cc(CNc3ncnc4c3CCNCC4)no2)cc1 , state its measured Percent Effect.
Response: 13.56

Request: Please give the documented Percent Effect of Cn1cc(CN2C[C@H]3CCC[C@@H](CNc4ncccn4)[C@H]3C2)cn1.O=C(O)C(F)(F)F
Response: -87.54

Request: Indicate its recorded Percent Effect; the compound in question is COc1cc(N2C[C@@H]3COC[C@]3(COCc3ccccn3)C2)ncn1.O=C(O)C(F)(F)F.O=C(O)C(F)(F)F
Response: -135.9

Request: Note Percent Effect for the compound shown: CCOC[C@]12COC[C@H]1CN(Cc1cccc(OC)c1)C2.O=C(O)C(F)(F)F
Response: -1.674

Request: Please give measured Percent Effect of the following entry: COCCN1CC2(CCCN(c3ncc(Cl)cc3F)C2)CCC1=O (centres undefined)
Response: -14.43

Request: Report Percent Effect for COc1ccccc1CN1C[C@@H]2COC[C@]2(COCc2ccncc2)C1.O=C(O)C(F)(F)F.O=C(O)C(F)(F)F
Response: 53.03

Request: Dear colleague, please send me the reported Percent Effect for O=C(CNC(=O)C1(c2ccc(F)cc2F)CCC1)Nc1ccccn1 when you can.
Response: -17.94

Request: Answer with the recorded Percent Effect for the compound listed here: NCC1Cc2cccc(-c3nccc(N4CCC(O)CC4)n3)c2O1 (centres undefined)
Response: 16.4

Request: Give the reported Percent Effect for this compound. COCCCN1CC2(CCCN(c3ncc(Cl)cc3F)C2)CCC1=O (centres undefined)
Response: -81.54

Request: Please report the measured Percent Effect for COc1ncccc1CN1C[C@@H]2COC[C@]2(COc2cccnc2)C1.O=C(O)C(F)(F)F.O=C(O)C(F)(F)F.O=C(O)C(F)(F)F
Response: -33.52

Request: Annotate the compound N#Cc1cc(Br)ccc1NC1CCN(CC(N)=O)CC1 with its measured Percent Effect.
Response: 19.71

Request: Return reported Percent Effect. Input compound: COc1cccc(CN2C[C@@H]3COC[C@]3(COCc3ccccn3)C2)c1.O=C(O)C(F)(F)F.O=C(O)C(F)(F)F
Response: 58.94

Request: Indicate the recorded Percent Effect value for this compound: O=C(O)C(F)(F)F.O=C(O)C(F)(F)F.O=C(O)C(F)(F)F.c1cnc(N2CCN(C3CCC[C@@H]4CN(CC5CC5)C[C@H]34)CC2)nc1 (some centres undefined)
Response: 48.04

Request: Return value of Percent Effect for input Cc1cscc1-c1nc(C2CCOC2)no1 (centres undefined) , no commentary.
Response: -27.07

Request: Give the measured Percent Effect for O=C(c1cccnc1)N1CCC2(CC1)CCN(Cc1ccccn1)C2=O
Response: -24.21

Request: For Cn1ccnc1NC[C@@H]1CCC[C@@H]2CN(Cc3nccs3)C[C@@H]21.O=C(O)C(F)(F)F , write its Percent Effect.
Response: -64.87
